- PROTOCOL: inhibitors of intracellular T. cruzi growth, primary screen, luminescence, NIH3T3 host cells (AID 1885);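 further: signal also drops with host cell toxicity which is not excluded here; 0% = plate median of DMSO wells and 100% = zero luminescence signal; higher percent means less beta-gal luminescence so fewer parasites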
- SETUP CONDITIONS: T. cruzi beta-gal in NIH3T3, luminescence, 90 h; active compounds read high; concentration not given here
Out of some 300,000 compounds screened, about 4,400 (1.5%) were called active. This is one part of a sample in which actives are shown more often than they occur.
// classify(record): look up inhibition in ranges low = under 10%, moderate = from 10% up to 30%, high = 30% and over

# MOLECULE, CLASS NAME
measured = [
    ("O=C(CCN1CCN(C/C=C/c2ccccc2)CC1)Nc1ccccc1Cl", "high"),
    ("O=C(NCCN1CCOCC1)c1ccc(/C=C2\\Sc3ccccc3N(Cc3ccc(F)cc3)C2=O)cc1", "moderate"),
    ("NC(=O)c1c(NC(=O)c2ccccc2)sc2c1CCCC2", "moderate"),
    ("CCN1CCN(CCNC(=O)c2ccc(/C=C3/Sc4ccccc4N(Cc4cccc(C)c4)C3=O)cc2)CC1", "high"),
    ("COc1ccc(NC(=O)N2CCCC(C(=O)Nc3ccccc3OC)C2)cc1 (stereo not given)", "low"),
    ("Cc1ccc(S(=O)(=O)N2CCN(C(=O)c3ccccc3-c3nc4ccccc4s3)CC2)c(C)c1", "low"),
    ("Oc1ccc(N=Nc2nccs2)c(O)c1", "high"),
    ("Cc1ccc(NC(=O)c2c(NC(=O)CCC(=O)O)sc3c2CCCCC3)cc1", "low"),
    ("c1ccc2c(c1)C(=NC1CCCCC1)NC2=NC1CCCCC1", "high"),
    ("CS(=O)(=O)N(CC(=O)N1CCc2ccccc2C1)c1ccc(Br)cc1", "moderate"),
]

---

- PROTOCOL: inhibitors of intracellular T. cruzi growth, primary screen, luminescence, NIH3T3 host cells (AID 1885);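 further: signal also drops with host cell toxicity which is not excluded here; 0% = plate median of DMSO wells and 100% = zero luminescence signal; higher percent means less beta-gal luminescence so fewer parasites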
- SETUP CONDITIONS: T. cruzi beta-gal in NIH3T3, luminescence, 90 h; active compounds read high; concentration not given here
In all, about 300,000 compounds went through this assay and about 4,400 (1.5%) were called active. Only a selection was taken, and actives are over-represented in it overall.
Quick reference: inhibition of the listed items.

# COMPOUND, inhibition
data = [
    ("CCCCn1c(N)c(N2CCOCC2)c(=O)n(CC(=O)NCCc2ccccc2)c1=O", "-20% (inactive)"),
    ("CCc1noc(C)c1C(=O)NNC(=O)c1ccc(F)cc1", "-6.32% (inactive)"),
    ("COc1ccc(N(CC(=O)Nc2cccc3ccccc23)S(C)(=O)=O)c(OC)c1", "-7.06% (inactive)"),
    ("O=C(NC(=S)N1CCCCC1c1cccnc1)c1ccccc1 (centres undefined)", "46.1% (inactive)"),
    ("COc1ccc(C(=O)NC(=S)N2CCCCC2c2cccnc2)cc1OC (centres undefined)", "57.2% (active)"),
    ("COc1ccc(OC)c(C(c2nnnn2C(C)(C)C)N2CCc3ccccc3C2)c1 (centres undefined)", "63.1% (active)"),
    ("S=C(NCc1ccc(Cl)cc1)NC1CCCCC1", "10.1% (inactive)"),
    ("Cc1ccc(-c2cc(=O)[nH]c(NCc3ccccc3)n2)cc1", "-16.4% (inactive)"),
    ("COc1ccc(-c2c(NC(=O)c3ccco3)oc3ccc(Cl)cc3c2=O)cc1", "-16.1% (inactive)"),
    ("COC(=O)c1ccc(SCc2ccccc2)nc1", "-10.6% (inactive)"),
    ("CCc1c(C)nc(SCC(=O)NC2CCCC2)[nH]c1=O", "-9.04% (inactive)"),
    ("Cc1noc(C)c1CSCC(=O)Nc1ccc(Br)cc1Cl", "1.67% (inactive)"),
    ("CCn1c(/C=C/c2ccc([N+](=O)[O-])o2)nc2ccccc2c1=O", "85.9% (active)"),
    ("COc1ccc(NC(=O)CCNC(=O)Cn2cnc3sc4c(c3c2=O)CCCC4)cc1OC", "-2.4% (inactive)"),
    ("COc1ccc(C[C@H]2CN3C(=NC[C@H]3C)N2CCNC(=O)CCC2CCCCC2)cc1", "-4.54% (inactive)"),
    ("Cc1cc(C)nc(S/C=C/C(=O)c2ccccc2)n1", "12% (inactive)"),
    ("COc1cc(/C=C2\\CCCc3c2nc2ccccc2c3C(=O)O)cc(Cl)c1O", "6.47% (inactive)"),
    ("C=CCOc1cccc(C2C(C(=O)c3ccc(C)o3)=C(O)C(=O)N2c2nnc(C)s2)c1 (centres undefined)", "5.31% (inactive)"),
    ("CCOc1ccc(N(C)Cc2cc(=O)oc3ccc(OC)cc23)cc1", "79.2% (active)"),
    ("Cc1nn(C)cc1/C=N/NC(=O)c1sc2ccccc2c1Cl", "-4.55% (inactive)"),
    ("COc1ccccc1C(c1nnnn1C(C)(C)C)N1CCN(Cc2ccccc2)CC1 (centres undefined)", "-3.59% (inactive)"),
    ("COc1ccc(/C=C/C(=O)NC(=S)NN2CCCCC2c2cccnc2)cc1 (centres undefined)", "42.1% (inactive)"),
    ("COCCCNC(NC(=O)c1ccc(OC)cc1)C(Cl)(Cl)Cl (centres undefined)", "-20.9% (inactive)"),
    ("O=c1oc(/C=C/c2ccccc2)nc2ccccc12", "-17.7% (inactive)"),
    ("O=C(O)C1C2C=CC(C2)C1C(=O)NCc1ccccc1 (centres undefined)", "-11.6% (inactive)"),
    ("O=C(Nc1ccccc1Cl)N1CCN(c2ccc3nncn3n2)CC1", "-2.95% (inactive)"),
    ("Cc1ccc(NC(=O)CSCC(=O)Nc2sccc2C#N)cc1", "-1.58% (inactive)"),
    ("CC(NC(=O)c1cc2cc(Cl)ccc2oc1=N)c1ccccc1 (centres undefined)", "-3.32% (inactive)"),
    ("CCOc1ccc(-c2cc(C(=O)N/N=C/c3ccc(O)cc3)c3ccccc3n2)cc1", "18.7% (inactive)"),
    ("COc1ccc(NC(=O)CCS(=O)(=O)c2cc3c(cc2Cl)NC(=O)CO3)cc1OC", "1.37% (inactive)"),
    ("COc1ccc2oc(=O)cc(-c3cc4ccccc4o3)c2c1", "0.932% (inactive)"),
    ("O=C(O)c1ccccc1CSc1nc2ccccc2s1", "-11.7% (inactive)"),
    ("CC(C)CCN1CCN(Cc2cn[nH]c2C2CCCCC2)CC1CCO (centres undefined)", "24.3% (inactive)"),
    ("Cc1c(C(=O)N2CCCC2)c(S(=O)(=O)NCC(C)c2ccccc2)c(C)n1C (centres undefined)", "-5.32% (inactive)"),
    ("Cc1nc2nc(CSc3nc4ccccc4s3)cc(=O)n2[nH]1", "-6.18% (inactive)"),
    ("CCOC(=O)c1cnc(-n2nc(C)cc2C)nc1Nc1cccc(C(C)=O)c1", "-12.3% (inactive)"),
    ("CCc1ccccc1NC(=O)CN(c1ccc(OC)cc1OC)S(=O)(=O)c1ccccc1[N+](=O)[O-]", "58.4% (active)"),
    ("CCOc1ccc(S(=O)(=O)Nc2ccc(C(=O)NCCCN3CCCC3=O)cc2)cc1", "3.32% (inactive)"),
    ("CC1C(=O)Nc2ccccc2N1C(=O)c1ccc(F)cc1F (centres undefined)", "0.146% (inactive)"),
    ("COc1ccc(N2CCC(CNC(=S)Nc3c(C)cccc3C)C2)cc1 (centres undefined)", "55.3% (active)"),
    ("Cc1cccc([C@@H]2[C@@H]3C(=O)N(Cc4ccccc4)C(=O)[C@@H]3[C@]3(Cc4ccc(Cl)cc4)C(=O)N(c4cccc(Cl)c4)C(=O)N23)c1", "-3.42% (inactive)"),
    ("COCCn1nnnc1C(c1cc2ccc(OC)cc2[nH]c1=O)N1CCc2ccccc2C1 (centres undefined)", "-9.17% (inactive)"),
    ("NC(=O)c1ccc(NC(=O)COC(=O)c2c3c(nc4ccccc24)/C(=C\\c2ccc4c(c2)OCO4)CCC3)cc1", "69.5% (active)"),
    ("COC(C[C@@H]1O[C@@H]1C(=O)[C@@H](C)OCc1ccccc1)OC", "3.07% (inactive)"),
]
